Target: ABL1 (64-515) (Homo sapiens (Human))
Sequence (P00519 64-515): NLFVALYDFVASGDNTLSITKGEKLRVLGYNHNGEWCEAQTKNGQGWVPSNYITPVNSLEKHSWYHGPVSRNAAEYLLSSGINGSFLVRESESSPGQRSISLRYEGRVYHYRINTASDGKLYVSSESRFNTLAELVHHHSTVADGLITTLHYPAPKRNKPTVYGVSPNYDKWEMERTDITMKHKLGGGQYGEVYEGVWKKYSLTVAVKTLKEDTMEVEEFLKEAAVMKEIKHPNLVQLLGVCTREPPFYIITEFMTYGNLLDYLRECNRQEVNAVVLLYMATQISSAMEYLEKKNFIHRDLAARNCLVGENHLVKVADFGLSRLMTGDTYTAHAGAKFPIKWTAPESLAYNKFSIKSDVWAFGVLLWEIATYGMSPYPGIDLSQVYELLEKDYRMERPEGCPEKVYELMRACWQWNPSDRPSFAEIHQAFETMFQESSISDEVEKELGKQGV
Experiment: Radio ABL1 (64-515) assay (radiometric filter-binding)
Assay type: biochemical
pIC50: −log10 of the molar value.
endpoint_label: pIC50

compound	pIC50
O=C(Nc1ccc(OC(F)(F)F)cc1)c1cnc(N2CC[C@@H](O)C2)c(-c2ccc3ccncc3c2)c1 [Example 63]	8.40

(I) O=C(Nc1ccc(OC(F)(F)C(F)(F)F)cc1)c1cnc(N2CC[C@@H](O)C2)c(-c2cncc(F)c2)c1 [Example 221]
(II) O=C(Nc1ccc(OC(F)(F)Cl)cc1)c1cnc(N2C[C@H](CO)[C@@H](O)C2)c(-c2cncnc2)c1 (relative stereo) [Example 250]
(III) O=C(Nc1ccc(OC(F)(F)F)cc1)c1cnc(N2CC[C@@H](O)C2)c(-c2cccc(CO)c2)c1 [Example 59]
Q: Arrange the 3 compounds from largest to smallest pIC50. Lab note: record answer as labels in requested order.
Result: II, III, I
(II: 9.00, III: 8.22, I: 8.00)

---

Target: ABL1 (64-515) (Homo sapiens (Human))
Test: Radio ABL1 (64-515) assay (radiometric filter-binding)
Assay type: biochemical
pIC50: −log10 of the molar value.
endpoint_label: pIC50

O=C(Nc1ccc(SC(F)(F)Cl)cc1)c1cnc(N2CC[C@@H](O)C2)c(-c2cncc(F)c2)c1 8.52

(a) NC1CN(c2ncc(C(=O)Nc3ccc(OC(F)(F)F)cc3)cc2-c2cncc(F)c2)C1
(b) Cc1ccc(-c2cc(C(=O)Nc3ccc(OC(F)(F)F)cc3)cnc2N2CC(CO)C2)cn1
Q: Identify the entry with the larger pIC50. Options: a and b # answer = label of selected item
Result: a

(a) O=C(Nc1ccc(OC(F)(F)Cl)cc1)c1ccc(N2CC[C@@H](O)C2)c(-c2cncnc2)c1
(b) CN[C@H]1CCN(c2ncc(C(=O)Nc3ccc(OC(F)(F)F)cc3)cc2-c2ccc(C)nc2)C1
(c) N#Cc1ncc(-c2cc(C(=O)Nc3ccc(OC(F)(F)F)cc3)cnc2N2CC[C@H](CO)C2)cn1
Q: Arrange the 3 molecules from largest to smallest pIC50. Lab note: record answer as labels in requested order.
Result: a, b, c
(a: 8.89, b: 8.52, c: 8.30)

---

Target: ABL1 (64-515) (Homo sapiens (Human))
Test: Caliper ABL1 (64-515) assay (microfluidic mobility shift)
Format: biochemical
endpoint_label: IC50 (nM)

The following compounds have reported results that may help.
O=C(Nc1ccc(C(F)(F)C(F)(F)F)cc1)c1cnc(N2CC[C@@H](O)C2)c(-c2cncnc2)c1 0.6
CCN(CCO)c1ncc(C(=O)Nc2ccc(OC(F)(F)F)cc2)cc1-c1cncnc1 1.7
O=C(Nc1ccc(OC(F)(F)F)cc1)c1cnc(N2CC[C@@H](O)C2)c(-c2cccc(F)c2)c1 0.6
CN(CCO)c1ncc(C(=O)Nc2ccc(OC(F)(F)Cl)cc2)cc1-c1cncnc1 0.8
O=C(Nc1ccc(OC(F)(F)F)cc1)c1cnc(N2CC[C@H](CO)C2)c(-c2ccc(CF)nc2)c1 1.1

(A) O=C(Nc1ccc(OC(F)(F)F)cc1)c1cnc(N2CCOCC2)c(-c2ccc(CO)nc2)c1
(B) O=C(Nc1ccc(S(F)(F)(F)(F)F)cc1)c1cnc(N2CC[C@@H](O)C2)c(-c2cncc(F)c2)c1
Q: For A and B , which recorded IC50 is lower? # answer = label of selected item
Result: B

(A) N#Cc1cncc(-c2cc(C(=O)Nc3ccc(C(F)(F)C(F)(F)F)cc3)cnc2N2CC[C@@H](O)C2)c1
(B) O=C(Nc1ccc(SC(F)(F)F)cc1)c1cnc(N2CC[C@H](CO)C2)c(-c2cncc(F)c2)c1
Q: For A and B , which recorded IC50 is lower? # answer = label of selected item
Result: B
(B: 0.5 nM, A: 0.8 nM)

(1) O=C(Nc1ccc(OC(F)(F)F)cc1)c1ccc(N2CCOC2=O)c(-c2cncnc2)c1
(2) O=C(Nc1ccc(OC(F)(F)Cl)cc1)c1cnc(N2CC[C@@H](O)C2)c(-c2cccnc2F)c1
(3) O=C(Nc1ccc(OC(F)(F)F)cc1)c1ccc(N2C[C@@H](O)[C@@H](O)C2)c(-c2cncnc2)c1
(4) O=C(Nc1ccc(OC(F)(F)F)cc1)c1cnc(N2CCC3(COC3)C2)c(-c2cncnc2)c1
Q: Arrange the 4 compounds from largest to smallest IC50. Lab note: record answer as labels in requested order.
Result: 1, 4, 3, 2
(1: 5.5 nM, 4: 3.5 nM, 3: 2.2 nM, 2: 0.3 nM)
